meta.source: the supplement of paper PMC12645437

Would you kindly list log2 fold change of degron read counts for each of these sequences?
# Experimental system: T1, CRBN, Q96SW2;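 also: pooled lentiviral library of zinc finger degron-EGFP fusions in mCherry-positive Jurkat cells, FACS-sorted after compound exposure, with degron abundance counted by next-generation sequencing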
# T1 chain: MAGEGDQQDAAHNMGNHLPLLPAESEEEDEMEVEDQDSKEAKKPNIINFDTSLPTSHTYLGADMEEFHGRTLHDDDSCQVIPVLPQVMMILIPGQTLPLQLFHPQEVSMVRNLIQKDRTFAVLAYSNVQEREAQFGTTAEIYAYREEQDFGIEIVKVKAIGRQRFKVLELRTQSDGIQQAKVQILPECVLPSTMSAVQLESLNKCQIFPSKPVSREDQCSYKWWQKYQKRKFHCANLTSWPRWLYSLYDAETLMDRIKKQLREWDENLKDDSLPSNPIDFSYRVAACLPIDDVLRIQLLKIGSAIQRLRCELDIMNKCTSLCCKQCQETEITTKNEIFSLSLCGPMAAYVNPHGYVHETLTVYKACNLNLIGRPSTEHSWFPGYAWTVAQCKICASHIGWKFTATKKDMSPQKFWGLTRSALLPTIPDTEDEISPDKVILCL
# Measurement description: log2 fold change of degron read counts, EGFP-low vs EGFP+ sorted cells (limma voom), compound-induced degradation; higher = more compound-induced degradation of the degron-EGFP fusion; degrons are variants of IKZF1/3 zinc finger 2; compound dose not given here
# Condition context: Jurkat; 18 h; compound: compound 22 (5-morpholino-thalidomide)
Whole data set: some 8,300 sequences, median “log2 fold change of degron read counts, EGFP-low vs EGFP+ sorted cells (limma voom), compound-induced degradation” near -1.1, cut for the highest 2% near 3.2. This is one part of a sample in which the highest values are shown more often than they occur.
Response field accepts a number only; no unit should be typed.

Problem: Fill in log2 fold change of degron read counts for record FVCEICGAPFTQKGNLLRHIKL [46F_47V_49E_50I_52G_53A_54P_55F_67L_, Q9UKT9]
Solution: 3.62

Problem: Given the sequence FYCEICGAPFTQKGNLLRHIKL [46F_47Y_49E_50I_52G_53A_54P_55F_67L_, Q9UKT9] , write its reported log2 fold change of degron read counts.
Solution: 3.74

Problem: Give log2 fold change of degron read counts for the following sequence: FWCEICGANFTQKGNLLRHIKL [46F_47W_49E_50I_52G_53A_54N_55F_67L_, Q9UKT9]
Solution: 3.78

Problem: Answer with the recorded log2 fold change of degron read counts for the sequence listed here: FACEICGANFTQKGNLLRHIKL [46F_47A_49E_50I_52G_53A_54N_55F_67L_, Q9UKT9]
Solution: 1.89

Problem: Specify log2 fold change of degron read counts for FICDQCGARFTQKGNLLRHIKL [46F_47I_49D_50Q_52G_53A_54R_55F_67L_, Q9UKT9] and stop.
Solution: -0.912

Problem: Please look at this sequence and report its log2 fold change of degron read counts: FNCEICGAMFTQKGNLLRHIKL [46F_47N_49E_50I_52G_53A_54M_55F_67L_, Q9UKT9]
Solution: -0.456

Problem: Name the recorded log2 fold change of degron read counts of the sequence listed here: FMCEICGHPFTQKGNLLRHIKL [46F_47M_49E_50I_52G_53H_54P_55F_67L_, Q9UKT9]
Solution: -1.41

Problem: Look up and report measured log2 fold change of degron read counts for this entry: FSCEICGANFTQKGNLLRHIKL [46F_47S_49E_50I_52G_53A_54N_55F_67L_, Q9UKT9]
Solution: 1.59

Problem: Return log2 fold change of degron read counts for the following sequence: FGCEICGANFTQKGNLLRHIKL [46F_47G_49E_50I_52G_53A_54N_55F_67L_, Q9UKT9]
Solution: 0.765

Problem: Write down log2 fold change of degron read counts measured for item LKCPICGFDCTQKGNLLRHIKL [46L_47K_49P_50I_52G_53F_54D_55C_67L_, Q9UKT9]
Solution: -1.82

Problem: Item FLCEICGANFTQKGNLLRHIKL [46F_47L_49E_50I_52G_53A_54N_55F_67L_, Q9UKT9] : provide log2 fold change of degron read counts
Solution: -0.667

Problem: Give log2 fold change of degron read counts for FVCEICGAMFTQKGNLLRHIKL [46F_47V_49E_50I_52G_53A_54M_55F_67L_, Q9UKT9]
Solution: 0.968

Problem: Return value of log2 fold change of degron read counts for input FFCEICGANFTQKGNLLRHIKL [46F_47F_49E_50I_52G_53A_54N_55F_67L_, Q9UKT9] , no commentary.
Solution: 3.63

Problem: Tell me its log2 fold change of degron read counts given FICSVCGHTFTQKGNLLRHIKL [46F_47I_49S_50V_52G_53H_54T_55F_67L_, Q9UKT9] as the entry.
Solution: -2.3

Problem: Please give measured log2 fold change of degron read counts of the following entry: FECEICGANFTQKGNLLRHIKL [46F_47E_49E_50I_52G_53A_54N_55F_67L_, Q9UKT9]
Solution: -1.05
